B1: Osa-1-4 twister ribozyme (parent)
chain: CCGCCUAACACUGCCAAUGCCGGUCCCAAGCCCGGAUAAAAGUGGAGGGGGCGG

Variants of: B1
Test: self-cleavage, relative activity (ratio to wild type); higher = more cleavage; co-transcriptional
Please provide measured self-cleavage for the entries that follow.
Answers are plain numbers.

Solved cases (2 shown):
[[record]]
sequence_variant = "A10C U43G"
recorded_value = 0.64

[[record]]
sequence_variant = "A39U G13A"
recorded_value = 0.05


Required: self-cleavage, one value per variant below.
1. A17G C25G
2. C25A G47C

Result ::
1. 0.13
2. 0.03

Required: self-cleavage, one value per variant below.
1. C31A U37G
2. C11U C32A
3. A8U G49U
4. A17U G45C
5. C31U C33A
6. A17U C20G

Result ::
[0.05, 0.06, 0.05, 0.06, 0.08, 0.23]

Required: self-cleavage, one value per variant below.
1. G45U U24C
2. G50C U37G
3. A38C C52A
4. A7C G19U
5. G19U G49U
6. A41U C33U

Result ::
1. 0.04
2. 1.04
3. 1
4. 0.03
5. 0.03
6. 0.81

Required: self-cleavage, one value per variant below.
1. A41U U12G
2. A7C C25A
3. A29U G44U

Result ::
0.69
0.05
0.07
